Test: Assessment of solubility: HT solubility in pION buffer, UV spectrophotometry
Conditions: pH 6.8, aqueous buffer, kinetic from dmso stock, Solubility (pH 6.8), pH 6.8
Assay Readout: solubility (µg/mL)

Field: example entries. Status: answers known.
{"Molecule": "Cc1ccc(OCc2ccc(C(=O)N3CCCOCC3)cc2C)c(-c2csc(N3C[C@H]4CC[C@@H](C3)[C@H]4C(=O)O)n2)c1 [Compound 316]", "Assay Readout": "solubility", "Unit Symbol": "µg/mL", "Reported Result": 64}
{"Molecule": "Cc1ccc(OCc2ccc(C(=O)N(C)Cc3cnn(C)c3)cc2C)c(-c2csc(N3C[C@H]4CC[C@@H](C3)[C@H]4C(=O)O)n2)c1 [Compound 315]", "Assay Readout": "solubility", "Unit Symbol": "µg/mL", "Reported Result": 54}

[I] Cc1ccc(OCc2ccc(CN3CCOCC3)cc2C)c(-c2csc(N3CC(CC(=O)O)C3)n2)c1 [Compound 254]
[II] Cc1ccc(OCc2ccc(CN3CCS(=O)(=O)CC3)cc2C)c(-c2csc(N3CC(C4(C(=O)O)CC4)C3)n2)c1 [Compound 259]
Short answer wanted: higher solubility, I or II ? Give the chosen item's label as your response.
I
(I: 51 µg/mL, II: 19 µg/mL)

* * *

Molecular target: human soluble guanylate cyclase alpha 1 and beta 1 subunits (sGC) stably expressed in Chinese hamster ovary cells (Homo sapiens, UniProt Q02108+Q02153)
Construct: expressed in transfected cells; host or cells: Chinese hamster ovary cells, stably transfected
Sequence (Q02108 1-690 partner): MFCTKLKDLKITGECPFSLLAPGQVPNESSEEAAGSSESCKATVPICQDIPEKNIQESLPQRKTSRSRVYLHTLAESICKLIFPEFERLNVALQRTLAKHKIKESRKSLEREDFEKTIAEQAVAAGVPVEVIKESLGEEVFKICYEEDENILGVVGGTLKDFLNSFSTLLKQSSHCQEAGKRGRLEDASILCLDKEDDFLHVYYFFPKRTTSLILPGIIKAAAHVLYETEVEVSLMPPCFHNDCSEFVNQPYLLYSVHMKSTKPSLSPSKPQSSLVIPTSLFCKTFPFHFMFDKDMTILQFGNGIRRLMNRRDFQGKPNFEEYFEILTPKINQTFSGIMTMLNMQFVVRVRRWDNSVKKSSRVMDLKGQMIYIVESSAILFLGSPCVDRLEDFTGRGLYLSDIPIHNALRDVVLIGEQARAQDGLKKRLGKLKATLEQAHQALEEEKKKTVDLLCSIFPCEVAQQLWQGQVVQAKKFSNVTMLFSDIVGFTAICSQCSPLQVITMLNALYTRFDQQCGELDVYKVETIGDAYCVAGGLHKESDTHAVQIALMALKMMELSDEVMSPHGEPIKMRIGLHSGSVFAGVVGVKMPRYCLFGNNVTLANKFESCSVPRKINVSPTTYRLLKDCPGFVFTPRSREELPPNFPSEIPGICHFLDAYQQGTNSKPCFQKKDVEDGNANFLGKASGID
Sequence (Q02153 1-619): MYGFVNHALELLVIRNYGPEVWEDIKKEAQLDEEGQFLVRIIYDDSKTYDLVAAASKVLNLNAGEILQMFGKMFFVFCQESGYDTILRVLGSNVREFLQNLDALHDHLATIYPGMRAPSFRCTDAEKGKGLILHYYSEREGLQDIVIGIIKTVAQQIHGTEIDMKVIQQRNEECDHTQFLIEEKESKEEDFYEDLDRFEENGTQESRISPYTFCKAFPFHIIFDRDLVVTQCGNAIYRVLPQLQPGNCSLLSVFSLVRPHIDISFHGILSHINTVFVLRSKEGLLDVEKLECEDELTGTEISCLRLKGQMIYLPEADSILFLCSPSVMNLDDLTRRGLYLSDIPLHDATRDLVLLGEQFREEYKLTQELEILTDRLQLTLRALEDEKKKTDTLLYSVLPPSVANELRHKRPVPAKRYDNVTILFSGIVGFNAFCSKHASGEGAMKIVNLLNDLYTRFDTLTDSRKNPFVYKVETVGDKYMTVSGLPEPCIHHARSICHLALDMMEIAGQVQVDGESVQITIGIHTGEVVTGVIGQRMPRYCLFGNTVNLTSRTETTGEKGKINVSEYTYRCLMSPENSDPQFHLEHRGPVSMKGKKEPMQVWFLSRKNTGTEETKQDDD
Assay: sGC cellular activator assay: cGMP in CHO cells expressing human sGC, preincubated with ODQ
Format: cell-based
Details: 40 microM ODQ preincubation, 30 min at room temperature, presence or absence of 50% human serum not given, read-out: EC50 nM, Activity of Compounds in Cellular Assay
Assay Readout: EC50 (nM)

{"Compound": "Cc1ccc(OCc2ccc(CN3CCOC(C)C3)cc2C#N)c(-c2csc(N3C[C@H]4CC[C@@H](C3)[C@H]4C(=O)O)n2)c1 (stereo partly drawn)", "Reported Result": 39}

[1] COCC1CN(Cc2ccc(COc3ccc(C)cc3-c3csc(N4C[C@H]5CC[C@@H](C4)[C@H]5C(=O)O)n3)c(C#N)c2)CCO1 (stereo partly drawn)
[2] Cc1ccc(OCc2ccc(CN3CCOCC3)cc2C)c(-c2csc(N3CCC4CC4(C(=O)O)CC3)n2)c1 (stereo not drawn)
Short answer wanted: higher EC50, 1 or 2 ? Give the chosen item's label as your response.
2

* * *

Test: physchem
Settings: pH 4.5, aqueous buffer, kinetic from dmso stock, Solubility (pH 4.5)
Assay Readout: solubility (µg/mL)
Response body: numeric value in µg/mL, unit text excluded.

Kindly indicate its recorded solubility. Item: `Cc1ccc(OCc2ccc(CN3CCN(C(=O)C4CC4)CC3)cc2C)c(-c2csc(N3CCC(C(=O)O)CC3)n2)c1`
37

* * *

Target: Recombinant human soluble guanylate cyclase (sGC), alpha 1 / beta 1 subunits, heme-free (Homo sapiens, UniProt Q02108+Q02153)
Construct: histidine tag (C); made in house; host or cells: Sf9 insect cells (baculovirus coinfection)
Sequence (Q02108 1-690 partner): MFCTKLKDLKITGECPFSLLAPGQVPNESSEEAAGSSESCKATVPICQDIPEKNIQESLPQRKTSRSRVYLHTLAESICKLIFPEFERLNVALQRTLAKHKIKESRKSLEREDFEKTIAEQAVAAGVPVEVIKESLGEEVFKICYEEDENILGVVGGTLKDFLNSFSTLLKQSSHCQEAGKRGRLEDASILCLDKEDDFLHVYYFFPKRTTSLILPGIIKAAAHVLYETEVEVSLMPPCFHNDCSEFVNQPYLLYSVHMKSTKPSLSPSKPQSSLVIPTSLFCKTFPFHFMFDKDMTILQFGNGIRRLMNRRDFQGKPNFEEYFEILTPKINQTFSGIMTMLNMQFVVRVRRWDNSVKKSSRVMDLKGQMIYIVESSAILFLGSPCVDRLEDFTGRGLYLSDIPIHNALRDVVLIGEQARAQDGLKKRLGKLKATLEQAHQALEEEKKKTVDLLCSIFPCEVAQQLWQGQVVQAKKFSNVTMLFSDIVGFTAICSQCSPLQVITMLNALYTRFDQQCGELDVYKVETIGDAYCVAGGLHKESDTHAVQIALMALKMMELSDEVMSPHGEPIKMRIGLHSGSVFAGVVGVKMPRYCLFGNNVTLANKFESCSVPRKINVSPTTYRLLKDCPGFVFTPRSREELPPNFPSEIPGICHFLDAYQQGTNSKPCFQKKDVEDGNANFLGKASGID
Sequence (Q02153 1-619): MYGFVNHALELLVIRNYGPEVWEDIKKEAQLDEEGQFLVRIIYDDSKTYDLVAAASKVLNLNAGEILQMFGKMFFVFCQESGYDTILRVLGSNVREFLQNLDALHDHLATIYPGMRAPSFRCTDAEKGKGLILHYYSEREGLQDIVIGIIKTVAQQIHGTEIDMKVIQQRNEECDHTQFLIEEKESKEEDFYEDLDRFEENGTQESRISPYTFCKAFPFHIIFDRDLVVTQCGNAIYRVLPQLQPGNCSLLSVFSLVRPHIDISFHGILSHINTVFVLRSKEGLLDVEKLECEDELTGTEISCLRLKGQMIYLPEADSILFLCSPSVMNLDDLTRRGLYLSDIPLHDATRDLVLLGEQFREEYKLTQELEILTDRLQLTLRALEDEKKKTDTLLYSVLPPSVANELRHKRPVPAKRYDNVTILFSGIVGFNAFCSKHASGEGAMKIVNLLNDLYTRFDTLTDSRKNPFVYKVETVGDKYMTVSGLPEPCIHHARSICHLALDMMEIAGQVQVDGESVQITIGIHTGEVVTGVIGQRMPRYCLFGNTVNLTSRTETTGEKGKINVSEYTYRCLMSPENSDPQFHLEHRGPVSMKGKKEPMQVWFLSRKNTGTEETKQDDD
Test: Molecular assay: cGMP formation by heme-free recombinant sGC (CisBio cGMP detection kit)
Format: biochemical
Conditions: 300 pM heme-free sGC, 37° C., 60 min, cGMP readout; read-out: EC50 nM, Activity of Compounds in Molecular Assay
Assay Readout: EC50 (nM)

{"Molecule": "Cc1ccc(OCc2ccc(C(=O)NC3CCCCC3)cc2C)c(-c2csc(N3CCC(C(=O)O)CC3)n2)c1", "Reported Result": 750}
{"Molecule": "Cc1cc(CN2CCC(O)CC2)ccc1COc1c(C)cccc1-c1csc(N2CCC(C(=O)O)CC2)n1", "Reported Result": 2000}
{"Molecule": "Cc1ccc(OCc2ccc(CN3CCS(=O)(=O)CC3)cc2C)c(-c2csc(N3CCC(C(=O)O)CC3C)n2)c1 (stereo not shown)", "Reported Result": 30}
{"Molecule": "Cc1ccc(OCc2ccc(CN3CCS(=O)(=O)CC3)cc2C)c(-c2csc(N3CCC4(C(=O)O)CC4C3)n2)c1 (stereo not shown)", "Reported Result": 49}
{"Molecule": "COCCNCc1ccc(COc2ccc(C#N)cc2-c2csc(N3CCC(C(=O)O)CC3)n2)c(C)c1", "Reported Result": 5600}
{"Molecule": "Cc1ccc(OCc2ccc(CN3CCS(=O)(=O)CC3)cc2C)c(-c2csc(N3CC4C(C3)C4C(=O)O)n2)c1 (stereo not shown)", "Reported Result": 1700}
{"Molecule": "Cc1ccc(OCc2ccc(CN3CCN(C(=O)C(C)(C)C)CC3)cc2C)c(-c2csc(N3CCC(C(=O)O)CC3)n2)c1", "Reported Result": 83}
{"Molecule": "Cc1cc(CN2CCS(=O)(=O)CC2)ccc1COc1ccc(F)cc1-c1csc(N2CC3C(C2)C3C(=O)O)n1 (stereo not shown)", "Reported Result": 1200}

[a] Cc1ccc(OCc2ccc(CN3CCOCC3)cc2C#N)c(-c2csc(N3CCC(C(=O)O)CC3)n2)c1
[b] Cc1ccc(OCc2ccc(CN3CCC(F)CC3)cc2C)c(-c2csc(N3CCC(C(=O)O)CC3)n2)c1
Lower value of EC50 belongs to which: a or b ? Give the chosen item's label as your response.
a

[1] Cc1ccc(OCc2ccc(CN3CCN(C(=O)C4CC4)CC3)cc2C#N)c(-c2csc(N3CCC(C(=O)O)CC3)n2)c1
[2] Cc1cc(CN2CCS(=O)(=O)CC2)ccc1COc1ccc(Cl)cc1-c1csc(N2CCC(C(=O)O)C(C)C2)n1 (stereo not shown)
[3] Cc1ccc(OCc2ccc(C(=O)N3CCCCC3)cc2C)c(-c2csc(N[C@H]3CC[C@@H](C(=O)O)C3)n2)c1
// smallest EC50 at index 0, largest at the end # the answer lists labels in the order requested
1, 2, 3
(1: 14 nM, 2: 54 nM, 3: 2600 nM)

[I] Cc1cc(CN2CCS(=O)(=O)CC2)ccc1COc1c(-c2csc(N3CCC(C(=O)O)CC3)n2)cccc1C(F)(F)F
[II] Cc1ccc(OCc2ccc(CN3CCOCC3)cc2C)c(-c2csc(N3CCC(C)(C(=O)O)CC3)n2)c1
[III] Cc1ccc(OCc2ccc(C(=O)N3CCCCC3)cc2C#N)c(-c2csc(N3CCC(C(=O)O)CC3)n2)c1
[IV] Cc1ccc(OCc2ccc(CN3CCOCC3)cc2C)c(-c2csc(N3CC[C@@H](C(=O)O)[C@@H](C)C3)n2)c1 [Compound 173]
Returns the items ordered by EC50, from maximum to minimum. # the answer lists labels in the order requested
II, IV, III, I
(II: 1100 nM, IV: 140 nM, III: 58 nM, I: 9.9 nM)
